# study.target: PARP16 (Homo sapiens, UniProt Q8N5Y8)
# Sequence (Q8N5Y8 94-279 limits assumed): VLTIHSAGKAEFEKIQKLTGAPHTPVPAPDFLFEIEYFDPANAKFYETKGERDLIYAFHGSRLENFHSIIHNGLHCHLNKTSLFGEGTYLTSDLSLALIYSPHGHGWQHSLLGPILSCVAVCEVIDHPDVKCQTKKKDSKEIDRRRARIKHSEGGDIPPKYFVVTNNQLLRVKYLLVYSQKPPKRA
quantity.measured: IC50 (µM)
Give the number; µM is assumed, so skip it.

Task: Record request: IC50 value, item CN(C)CC(=O)Nc1ccc2[nH]c(=O)c3ccccc3c2c1
Result: 38

Hello, the source for this data is paper PMC9574550, in case you need it.
